Below: a set of entries, each annotated with reported protein stability index.
B1: IQUB (parent)
chain: KIREKEEWIKLDYHRRHNPKTNED

variants of: B1; assay: protein stability index of a GFP-peptide fusion (GPS, HEK-293T) (PSI 1-6); higher = more stable; details: c terminus: a fixed tail appended;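 note: lentivirally expressed fusions sorted by FACS into six bins by GFP to DsRed ratio, PSI derived from sequencing read proportions per bin multiplied by bin number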
READOUT KIND: protein stability index

[[record]]
variant_name = "I9G"
readout_kind = "protein stability index"
measured_value = 5.35

[[record]]
variant_name = "K1R"
readout_kind = "protein stability index"
measured_value = 4.68

[[record]]
variant_name = "T21P"
readout_kind = "protein stability index"
measured_value = 4.74

[[record]]
variant_name = "N18I"
readout_kind = "protein stability index"
measured_value = 4.19

[[record]]
variant_name = "N22C"
readout_kind = "protein stability index"
measured_value = 4.85

[[record]]
variant_name = "E4H"
readout_kind = "protein stability index"
measured_value = 4.32

[[record]]
variant_name = "Y13D"
readout_kind = "protein stability index"
measured_value = 5.04

[[record]]
variant_name = "I9M"
readout_kind = "protein stability index"
measured_value = 4.75

[[record]]
variant_name = "L11S"
readout_kind = "protein stability index"
measured_value = 5.23

[[record]]
variant_name = "W8M"
readout_kind = "protein stability index"
measured_value = 5.1

[[record]]
variant_name = "E4R"
readout_kind = "protein stability index"
measured_value = 3.99

[[record]]
variant_name = "W8Y"
readout_kind = "protein stability index"
measured_value = 5.13

[[record]]
variant_name = "H14N"
readout_kind = "protein stability index"
measured_value = 4.89

[[record]]
variant_name = "Y13R"
readout_kind = "protein stability index"
measured_value = 5.28

[[record]]
variant_name = "K10H"
readout_kind = "protein stability index"
measured_value = 4.56

[[record]]
variant_name = "H17I"
readout_kind = "protein stability index"
measured_value = 4.5

[[record]]
variant_name = "E23H"
readout_kind = "protein stability index"
measured_value = 4.18

[[record]]
variant_name = "W8E"
readout_kind = "protein stability index"
measured_value = 4.69

[[record]]
variant_name = "L11G"
readout_kind = "protein stability index"
measured_value = 4.64

[[record]]
variant_name = "W8F"
readout_kind = "protein stability index"
measured_value = 4.24

[[record]]
variant_name = "R15Q"
readout_kind = "protein stability index"
measured_value = 3.98

[[record]]
variant_name = "R3N"
readout_kind = "protein stability index"
measured_value = 4.72

[[record]]
variant_name = "I9S"
readout_kind = "protein stability index"
measured_value = 4.62

[[record]]
variant_name = "E4A"
readout_kind = "protein stability index"
measured_value = 4.38

[[record]]
variant_name = "K20C"
readout_kind = "protein stability index"
measured_value = 4.27

[[record]]
variant_name = "D12T"
readout_kind = "protein stability index"
measured_value = 3.79

[[record]]
variant_name = "R16S"
readout_kind = "protein stability index"
measured_value = 5.12

[[record]]
variant_name = "K1V"
readout_kind = "protein stability index"
measured_value = 4.52

[[record]]
variant_name = "Y13I"
readout_kind = "protein stability index"
measured_value = 3.95

[[record]]
variant_name = "K20V"
readout_kind = "protein stability index"
measured_value = 4.72

[[record]]
variant_name = "K10W"
readout_kind = "protein stability index"
measured_value = 3.17

[[record]]
variant_name = "W8T"
readout_kind = "protein stability index"
measured_value = 5.19

[[record]]
variant_name = "I2R"
readout_kind = "protein stability index"
measured_value = 4.58

[[record]]
variant_name = "H17T"
readout_kind = "protein stability index"
measured_value = 4.57

[[record]]
variant_name = "L11R"
readout_kind = "protein stability index"
measured_value = 5.29

[[record]]
variant_name = "N22V"
readout_kind = "protein stability index"
measured_value = 4.15

[[record]]
variant_name = "N18G"
readout_kind = "protein stability index"
measured_value = 4.93

[[record]]
variant_name = "L11M"
readout_kind = "protein stability index"
measured_value = 4.71

[[record]]
variant_name = "R3E"
readout_kind = "protein stability index"
measured_value = 5.08

[[record]]
variant_name = "D12W"
readout_kind = "protein stability index"
measured_value = 3.79

[[record]]
variant_name = "K5S"
readout_kind = "protein stability index"
measured_value = 4.14

[[record]]
variant_name = "T21H"
readout_kind = "protein stability index"
measured_value = 4.08

[[record]]
variant_name = "H17Q"
readout_kind = "protein stability index"
measured_value = 5.08

[[record]]
variant_name = "K1T"
readout_kind = "protein stability index"
measured_value = 4.87

[[record]]
variant_name = "Y13C"
readout_kind = "protein stability index"
measured_value = 4.33

[[record]]
variant_name = "D24C"
readout_kind = "protein stability index"
measured_value = 3.29

